# inhibition of PMA-induced release of HB-EGF from U-937 cells listing for each entry below
# Measured target: T1, human iRhom2 (inactive rhomboid protein 2, isoform 1), endogenously expressed on human cells (human, UniProt Q6PJF5 1-856); further: test concentration or dose not given here
# T1 sequence: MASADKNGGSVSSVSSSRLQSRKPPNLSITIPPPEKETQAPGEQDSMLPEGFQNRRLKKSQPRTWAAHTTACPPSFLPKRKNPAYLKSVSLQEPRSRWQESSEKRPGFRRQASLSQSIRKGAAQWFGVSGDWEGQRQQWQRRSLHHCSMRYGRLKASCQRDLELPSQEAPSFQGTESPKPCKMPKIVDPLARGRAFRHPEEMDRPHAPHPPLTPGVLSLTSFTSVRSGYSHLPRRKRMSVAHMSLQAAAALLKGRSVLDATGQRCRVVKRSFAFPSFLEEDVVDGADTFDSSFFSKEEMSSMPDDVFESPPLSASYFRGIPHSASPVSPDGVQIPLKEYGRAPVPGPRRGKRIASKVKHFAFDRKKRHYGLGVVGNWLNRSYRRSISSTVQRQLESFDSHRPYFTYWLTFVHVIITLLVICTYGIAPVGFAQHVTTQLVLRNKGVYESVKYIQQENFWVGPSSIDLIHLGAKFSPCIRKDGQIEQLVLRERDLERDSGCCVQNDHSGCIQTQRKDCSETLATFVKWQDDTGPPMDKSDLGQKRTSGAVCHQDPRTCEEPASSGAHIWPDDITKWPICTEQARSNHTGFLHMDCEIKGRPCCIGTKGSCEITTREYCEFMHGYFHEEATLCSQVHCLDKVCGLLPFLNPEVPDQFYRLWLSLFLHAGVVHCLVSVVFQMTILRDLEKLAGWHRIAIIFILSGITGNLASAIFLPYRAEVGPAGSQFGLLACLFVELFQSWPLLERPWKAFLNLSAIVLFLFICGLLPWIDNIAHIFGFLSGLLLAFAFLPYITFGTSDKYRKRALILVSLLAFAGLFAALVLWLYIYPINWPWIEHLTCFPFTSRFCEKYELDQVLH
# Measurement description: cell-based or functional assay
A number alone suffices; assume % inhibition.

Field: example entries. Status: answers known.
| Binder | Measure unit | Observed |
| --- | --- | --- |
| antibody 44 (antibody, V domains shown, Mouse IgG, kappa light chain; also called clone #44; m44) VH: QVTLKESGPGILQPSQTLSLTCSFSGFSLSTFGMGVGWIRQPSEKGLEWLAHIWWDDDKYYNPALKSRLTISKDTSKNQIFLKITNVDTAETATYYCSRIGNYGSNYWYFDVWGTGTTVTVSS VL: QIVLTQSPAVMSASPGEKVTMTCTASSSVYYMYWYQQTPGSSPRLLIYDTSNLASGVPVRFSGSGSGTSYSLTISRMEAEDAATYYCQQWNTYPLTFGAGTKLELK | % inhibition | 100 |
| chimeric version of antibody 42 (antibody, V domains shown) VH: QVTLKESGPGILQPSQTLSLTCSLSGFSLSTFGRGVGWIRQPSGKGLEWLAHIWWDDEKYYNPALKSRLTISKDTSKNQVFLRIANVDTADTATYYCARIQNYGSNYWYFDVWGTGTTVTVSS VL: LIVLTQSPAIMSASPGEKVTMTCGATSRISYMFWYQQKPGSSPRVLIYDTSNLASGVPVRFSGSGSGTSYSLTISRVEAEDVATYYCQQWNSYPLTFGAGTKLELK | % inhibition | 103 |
| chimeric version of antibody 22 (antibody, V domains shown) VH: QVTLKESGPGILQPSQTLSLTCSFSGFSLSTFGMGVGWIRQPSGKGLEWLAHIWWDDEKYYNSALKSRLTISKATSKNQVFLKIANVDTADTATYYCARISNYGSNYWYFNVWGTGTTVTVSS VL: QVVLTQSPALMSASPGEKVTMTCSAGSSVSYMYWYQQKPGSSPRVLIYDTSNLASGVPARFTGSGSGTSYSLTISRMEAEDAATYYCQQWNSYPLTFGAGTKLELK | % inhibition | 103 |

From here, focus on the item given below.
## Task Item under review: chimeric version of antibody 44 (antibody, V domains shown) VH: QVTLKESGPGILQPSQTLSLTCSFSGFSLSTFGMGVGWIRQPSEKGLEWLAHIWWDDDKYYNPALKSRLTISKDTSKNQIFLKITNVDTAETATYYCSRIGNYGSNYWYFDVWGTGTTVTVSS VL: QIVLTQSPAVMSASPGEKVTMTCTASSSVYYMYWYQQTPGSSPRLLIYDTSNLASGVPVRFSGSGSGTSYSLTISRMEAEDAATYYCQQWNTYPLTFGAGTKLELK . Reported inhibition of PMA-induced release of HB-EGF from U-937 cells?
## Result 99.2

Values compiled from patent US20240174744A1.
